B1: TPR t1 (parent)
chain: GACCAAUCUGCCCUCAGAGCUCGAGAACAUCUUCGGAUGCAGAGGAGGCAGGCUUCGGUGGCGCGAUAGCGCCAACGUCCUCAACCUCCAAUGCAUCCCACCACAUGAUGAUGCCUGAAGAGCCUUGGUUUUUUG

Variants of: B1
Experiment: polymerase ribozyme fitness, log enrichment relative to wild type (log ratio); higher = more active; in vitro selection for triplet polymerase activity
Classify by measured polymerase ribozyme fitness (log ratio): label 1 if it is equal to or exceeds -2, label 0 if it is smaller.

           changes  discrete_label
0        C72A C88U         label 1
1  U21G A84U C114A         label 1
2       C73U U112A         label 1

Prompt: Record G10A G71A C80A ; criterion: polymerase ribozyme fitness (log ratio) no lower than -2. Met?
Response: label 0

Prompt: Likewise for G36U A83C C104U U106G ?
Response: label 0

Prompt: Likewise for C28U C56U ?
Response: label 1

Prompt: Likewise for C15A C94U ?
Response: label 1

Measured values drawn from the RNAGym collection of RNA variant scans (doi:10.1073/pnas.2313332121) for this set.
